SYSTEM: Cytochrome P450 3A4 (Homo sapiens) (UniProt P08684)
Sequence (P08684 whole entry, looked up): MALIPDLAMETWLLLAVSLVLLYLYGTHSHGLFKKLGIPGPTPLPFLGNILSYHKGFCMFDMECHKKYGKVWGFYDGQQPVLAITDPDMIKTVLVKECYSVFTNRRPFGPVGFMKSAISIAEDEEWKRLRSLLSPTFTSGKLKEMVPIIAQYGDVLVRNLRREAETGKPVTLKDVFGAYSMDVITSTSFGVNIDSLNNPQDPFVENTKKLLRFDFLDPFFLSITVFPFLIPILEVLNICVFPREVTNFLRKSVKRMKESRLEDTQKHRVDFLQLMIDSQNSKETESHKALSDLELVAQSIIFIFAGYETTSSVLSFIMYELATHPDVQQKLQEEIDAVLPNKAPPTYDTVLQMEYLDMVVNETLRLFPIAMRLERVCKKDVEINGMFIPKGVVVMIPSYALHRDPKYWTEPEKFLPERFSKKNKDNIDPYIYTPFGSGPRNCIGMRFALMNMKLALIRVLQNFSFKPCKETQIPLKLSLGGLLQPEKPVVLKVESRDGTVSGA
PROCEDURE SUMMARY: Cytochrome P450 Family 3 Subfamily A Member 4 (CYP3A4) small molecule antagonists: luciferase reporter qHTS assay (AID 1671201); further: nearly all actives have a fitted effect of over 50% in size
ASSAY CONDITIONS: P450-Glo CYP3A4 enzyme, luciferin luminescence, 1 h; series mostly up to 115 µM
Records with an inconclusive call do not appear. Calls of active or inactive are those of the source. The call rests on the fitted dose curve; in most records, active means well fitted inhibition curve with a large enough effect in the repeat runs; inconclusive means weak or mixed curves; inactive means no such curve, though single readings can be large or run the other way.
// one of label 1 (active), label 0 (inactive), no free text

COMPOUND	CLASS LABEL
CC(=O)CC(N)=O	label 0
CN(C[C@@H](CC[N+]12CCC(C3CCCCC3)(CC1)CC2)c1ccc(Cl)c(Cl)c1)C(=O)c1cc(C(F)(F)F)cc(C(F)(F)F)c1	label 1
Nc1ccc(F)c([N+](=O)[O-])c1	label 0
O=[N+]([O-])c1ccc(CO)cc1	label 0
COCCC(=O)OC	label 0

(Q) Could you kindly confirm the outcome this assay logged for "CC(C)=NNC(N)=S" ?
(A) label 0

(Q) Could you kindly confirm the outcome this assay logged for "O=C1CCC/C=C\CCCCCCCCCC1" ?
(A) label 1

(Q) Could you kindly confirm the outcome this assay logged for "COc1ccc(OC)c(N=Nc2c(O)ccc3ccccc23)c1" ?
(A) label 1

###

SYSTEM: Nuclear receptor subfamily 1 group I member 3 (Homo sapiens) (UniProt Q14994)
Sequence (Q14994 whole entry, looked up): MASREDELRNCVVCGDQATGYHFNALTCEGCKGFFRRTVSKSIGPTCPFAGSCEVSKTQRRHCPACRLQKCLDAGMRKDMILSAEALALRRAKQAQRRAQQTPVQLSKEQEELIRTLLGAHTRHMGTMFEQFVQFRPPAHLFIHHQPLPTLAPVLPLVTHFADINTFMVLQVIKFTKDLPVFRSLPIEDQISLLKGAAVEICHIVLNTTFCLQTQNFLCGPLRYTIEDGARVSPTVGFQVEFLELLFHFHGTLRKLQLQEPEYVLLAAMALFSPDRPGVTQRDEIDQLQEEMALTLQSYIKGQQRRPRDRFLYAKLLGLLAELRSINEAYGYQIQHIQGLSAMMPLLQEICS
PROCEDURE SUMMARY: qHTS assay to identify small molecule antagonists of the constitutive androstane receptor (CAR) signaling pathway (AID 1224838);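 further: HepG2 cells stably expressing hCAR with CYP2B6 luciferase reporter stimulated by CITCO; nearly all actives have a fitted effect of over 40% in size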
ASSAY CONDITIONS: HepG2-CYP2B6-hCAR luciferase, CITCO-stimulated, 24 h; series mostly up to 92.4 µM
Records with an inconclusive call do not appear. Active and inactive are the calls of the source. Calls come from the whole dose curve; as a rule, active = well fitted inhibition curve with a large enough effect in the repeat runs; inconclusive = weak or mixed curves, or effect the other way; inactive = no such curve, though single readings can be large or run the other way.
// one of True = active, False = inactive, no free text

(Q) Could you kindly confirm the outcome this assay logged for "CC(C)(C)C1=CC(=O)C(C(C)(C)C)=CC1=O" ?
(A) False

(Q) Could you kindly confirm the outcome this assay logged for "CN1CCN(c2ccccc2/C=C2\SCCN(c3ccc(Cl)c(Cl)c3)C2=O)CC1" ?
(A) False

(Q) Could you kindly confirm the outcome this assay logged for "CCCCCCCCCCCC(=O)Cl" ?
(A) False

(Q) Could you kindly confirm the outcome this assay logged for CC(C)(C)c1ccc(OC2CCCCC2O)cc1 (centres undefined) ?
(A) False

(Q) Could you kindly confirm the outcome this assay logged for CCCC(C)C=O (centres undefined) ?
(A) False

(Q) Could you kindly confirm the outcome this assay logged for c1ccc(-c2ccc(C(c3ccccc3)n3ccnc3)cc2)cc1 (centres undefined) ?
(A) False

(Q) Could you kindly confirm the outcome this assay logged for "CCNc1nc(NC(C)(C)C)nc(OC)n1" ?
(A) False

(Q) Could you kindly confirm the outcome this assay logged for "Cc1cc(Br)ccc1NC(=O)CCl" ?
(A) True

(Q) Could you kindly confirm the outcome this assay logged for "C=Cc1ccncc1" ?
(A) False

###

PROCEDURE SUMMARY: qHTS assay to identify small molecule antagonists of the estrogen receptor alpha (ER-alpha) signaling pathway using the BG1 cell line in the presence of 0.1 nM 17-beta-estradiol - cell viability counter screen (AID 1259241); further: nearly all actives have a fitted effect of over 40% in size
ASSAY CONDITIONS: VM7Luc4E2 (BG1) viability, CellTiter-Fluor protease, 22 h, 0.1 nM estradiol agonist added; series mostly up to 92.4 µM
Results filed as inconclusive are left out. The source made the active and inactive calls. Calls come from the whole dose curve; as a rule, active = well fitted cell-killing curve with a large enough effect in the repeat runs; inconclusive = weak or mixed curves, or effect the other way; inactive = flat fitted curve, though single readings scatter.
PROPERTY: outcome

COMPOUND SMILES	PROPERTY	MEASURED VALUE
O=C(N[C@H](CO)[C@H](O)c1ccc([N+](=O)[O-])cc1)C(Cl)Cl	outcome	inactive
O=C(Cl)c1ccc(Cl)cc1Cl	outcome	inactive
CCN(CC)c1ccc(C=O)cc1	outcome	inactive

###

PROCEDURE SUMMARY: qHTS assay to identify small molecule agonists of the AP-1 signaling pathway - cell viability counter screen (AID 1159525); further: nearly all actives have a fitted effect of over 55% in size
ASSAY CONDITIONS: ME-180 (cervical carcinoma) AP-1-bla cells viability, ATP luminescence, 5 h; series mostly up to 76.8 µM
Records with an inconclusive call do not appear. The source made the active and inactive calls. Calls come from the whole dose curve.
// one of active, inactive, no free text

Use these answered entries as a reference point.
MOLECULE	CLASS LABEL
Cc1cc(C)c(O)c(C(C)(C)C)c1	inactive
CC(c1cc(C(C)(C)C)cc(C(C)(C)C)c1O)c1cc(C(C)(C)C)cc(C(C)(C)C)c1O	inactive
O=C1OC(=O)c2cc(-c3ccc4c(c3)C(=O)OC4=O)ccc21	inactive
Nc1c(Br)cc([N+](=O)[O-])cc1Br	inactive
O=c1cc[nH]cc1	inactive

(Q) Could you kindly confirm the outcome this assay logged for CC(C=O)c1ccccc1 (stereo not given) ?
(A) inactive

(Q) Could you kindly confirm the outcome this assay logged for "CCOC(=O)[C@H](C)O" ?
(A) inactive

(Q) Could you kindly confirm the outcome this assay logged for "Cc1ccc2n[nH]nc2c1" ?
(A) inactive

###

PROCEDURE SUMMARY: qHTS assay for small molecule agonists of the p53 signaling pathway (AID 651631); further: nearly all actives have a fitted effect of over 15% in size
ASSAY CONDITIONS: HCT-116 p53RE-bla reporter, beta-lactamase FRET ratio, 16 h; series mostly up to 73.3 µM
Results filed as inconclusive are left out. The source made the active and inactive calls. Calls follow the shape of the full dose curve.
// one of 1 for active, -1 for inactive, no free text

COMPOUND	CLASS LABEL
CN[C@H](CC(C)C)C(=O)N[C@H]1C(=O)N[C@@H](CC(N)=O)C(=O)N[C@H]2C(=O)N[C@H]3C(=O)N[C@H](C(=O)N[C@@H](C(=O)O)c4cc(O)cc(O)c4-c4cc3ccc4O)[C@H](O)c3ccc(c(Cl)c3)Oc3cc2cc(c3O[C@@H]2O[C@H](CO)[C@@H](O)[C@H](O)[C@H]2O[C@H]2C[C@](C)(N)C(O)[C@H](C)O2)Oc2ccc(cc2Cl)[C@H]1O (stereo partly drawn)	-1
C[S+](C)CCC(N)C(=O)O (stereo not drawn)	-1
CC(C)(COP(=O)(O)OP(=O)(O)OC[C@H]1O[C@@H](n2cnc3c(N)ncnc32)[C@H](O)[C@@H]1OP(=O)(O)O)C(O)C(=O)NCCC(=O)NCCS (stereo partly drawn)	-1

(Q) Could you kindly confirm the outcome this assay logged for CCC1OC(=O)C[C@@H](O)[C@H](C)[C@@H](O[C@@H]2O[C@H](C)C[C@H](N(C)C)[C@H]2O)[C@@H](CC=O)C[C@@H](C)C(=O)/C=C/[C@]2(C)OC2C1C (stereo partly drawn) ?
(A) 1

(Q) Could you kindly confirm the outcome this assay logged for "N[C@H](C(=O)O)[C@@H]1CC(Cl)=NO1" ?
(A) 1

(Q) Could you kindly confirm the outcome this assay logged for "FC(F)(F)C(F)(F)C(F)(F)C(F)(F)C(F)(F)F" ?
(A) -1

(Q) Could you kindly confirm the outcome this assay logged for "CN[C@@H]1[C@@H](O[C@H]2O[C@H](CO)[C@@H](N)[C@H](O)[C@H]2O)O[C@H]2C[C@@H](N)[C@@H](O[C@H]3[C@H](O)[C@@H](O)[C@H](N)C[C@@H]3N)O[C@@H]2[C@@H]1O" ?
(A) -1

(Q) Could you kindly confirm the outcome this assay logged for "CO/N=C(\C(=O)N[C@@H]1C(=O)N2C(C(=O)[O-])=C(C[n+]3cccc4c3CCC4)CS[C@H]12)c1csc(N)n1" ?
(A) -1

###

PROCEDURE SUMMARY: qHTS assay for small molecules that induce genotoxicity in human embryonic kidney cells expressing luciferase-tagged ATAD5 (AID 651632); further: nearly all actives have a fitted effect of over 15% in size
ASSAY CONDITIONS: HEK293T ATAD5-luciferase induction, 16 h; series mostly up to 83.3 µM
From the text: U.S. Tox21 Program National Center for Advancing Translational Sciences [NCATS] NIH Chemical Genomics Center [NCGC] U.S. Environmental Protection Agency [EPA] National Institutes of Environmental Health Sciences [NIEHS] National Toxicology Program [NTP] U.S. Food and Drug Administration [FDA] Tox21 Assay Overview: As cancer cells divide rapidly and during every cell division they need to duplicate their genome by DNA replication. The failure to do so results in the cancer cell death. […]
Results filed as inconclusive are left out. Calls of active or inactive are those of the source. The call rests on the fitted dose curve; in most records, active means well fitted activation curve with a large enough effect in the repeat runs; inconclusive means weak or mixed curves; inactive means no such curve, though single readings can be large or run the other way.
// one of 1 (yes) for active, 0 (no) for inactive, no free text

MOLECULE	CLASS LABEL
Cc1onc(-c2c(F)cccc2Cl)c1C(=O)N[C@@H]1C(=O)N2[C@@H]1SC(C)(C)[C@@H]2C(=O)O	0 (no)
CN1[C@@H](CC(=O)c2ccccc2)CCC[C@H]1C[C@H](O)c1ccccc1	0 (no)
CC(C)(Oc1ccc(C2CCCc3ccccc32)cc1)C(=O)O (configuration not stated)	0 (no)
O=C1[O][Bi][O]c2ccccc21	0 (no)
O=C(O)COc1ccc(C(=O)c2cccs2)c(Cl)c1Cl	0 (no)
CO[C@H](C(=O)[C@@H](O)[C@@H](C)O)C1Cc2cc3cc(O[C@H]4C[C@@H](O[C@H]5C[C@@H](O)[C@H](O)[C@@H](C)O5)[C@@H](O)[C@@H](C)O4)c(C)c(O)c3c(O)c2C(=O)[C@H]1O[C@H]1C[C@@H](O[C@H]2C[C@@H](O[C@H]3C[C@](C)(O)[C@H](O)[C@@H](C)O3)[C@H](O)[C@@H](C)O2)[C@H](O)[C@@H](C)O1 (some centres not stated)	0 (no)

Shifting focus to the molecule that follows.
(Q) Could you kindly confirm the outcome this assay logged for "CNCC(=O)N[C@@H](CCCN=C(N)N)C(=O)N[C@H](C(=O)N[C@@H](Cc1ccc(O)cc1)C(=O)N[C@H](C(=O)N[C@@H](Cc1cnc[nH]1)C(=O)N1CCC[C@H]1C(=O)N[C@@H](C)C(=O)O)C(C)C)C(C)C" ?
(A) 0 (no)
